assay_name: Intrinsic clearance in human liver microsomes
Assay type: ADME, Microsome
condition_summary: read-out: CLH
endpoint: microsomal CLint (µL/min/mg)
Report only the number, with the unit µL/min/mg understood.

1) CNC(=O)c1sc(N2CC3CC2(CNC(=O)c2c[nH]c4ncccc24)C3)nc1C(F)(F)F = 200
2) CN(Cc1ccc2c(c1)CCCO2)c1nnc(-c2ccc(-c3ccccc3Cl)cc2)o1 = 19

Shift focus to the following entry.
// microsomal CLint lookup, key: "COc1cc2c(Nc3cnc(OCCCC4CCCC4)nc3)ncnc2cc1OCCCN1CCCCC1"
96

---

In this section we review reported pIC50 values for a set of molecules.
measured_on: UniProt Q12866
Sequence (Q12866 whole entry, the tested form may be a part): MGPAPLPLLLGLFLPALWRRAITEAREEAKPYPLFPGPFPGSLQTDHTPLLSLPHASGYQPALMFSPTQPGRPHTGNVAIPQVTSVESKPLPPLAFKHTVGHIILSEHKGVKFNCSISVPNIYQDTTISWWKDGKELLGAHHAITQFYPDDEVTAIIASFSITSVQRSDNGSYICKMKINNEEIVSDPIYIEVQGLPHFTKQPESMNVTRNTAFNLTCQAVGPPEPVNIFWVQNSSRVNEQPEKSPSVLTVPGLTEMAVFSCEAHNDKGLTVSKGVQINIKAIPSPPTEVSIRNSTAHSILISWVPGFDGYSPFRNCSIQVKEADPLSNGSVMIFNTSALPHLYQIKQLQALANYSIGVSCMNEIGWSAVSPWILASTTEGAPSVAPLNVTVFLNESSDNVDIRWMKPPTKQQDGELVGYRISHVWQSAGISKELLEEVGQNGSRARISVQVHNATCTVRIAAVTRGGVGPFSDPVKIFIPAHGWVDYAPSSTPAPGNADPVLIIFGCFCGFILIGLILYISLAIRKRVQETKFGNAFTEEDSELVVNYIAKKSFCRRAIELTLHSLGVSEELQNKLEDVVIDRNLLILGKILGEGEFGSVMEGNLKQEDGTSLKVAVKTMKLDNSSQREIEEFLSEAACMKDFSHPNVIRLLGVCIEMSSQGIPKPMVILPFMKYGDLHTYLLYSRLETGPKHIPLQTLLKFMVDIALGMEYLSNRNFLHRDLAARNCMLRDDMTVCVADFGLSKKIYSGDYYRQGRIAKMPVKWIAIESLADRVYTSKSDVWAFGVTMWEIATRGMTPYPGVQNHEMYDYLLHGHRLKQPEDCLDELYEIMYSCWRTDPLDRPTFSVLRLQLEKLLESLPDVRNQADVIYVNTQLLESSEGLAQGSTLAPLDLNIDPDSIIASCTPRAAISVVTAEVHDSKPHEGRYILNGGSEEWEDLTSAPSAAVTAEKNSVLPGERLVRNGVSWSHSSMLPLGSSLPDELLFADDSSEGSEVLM
assay_name: Inhibition of 6His/thrombin cleavage site-fused Avi-tagged dephosphorylated MER (unknown origin) (R528 to M999 residues) using Axltide (CKKSRGDYMTMQJG-acid) peptide as substrate preincubated for 30 mins followed by substrate and ATP addition at Km concentration measured after 120 mins by RapidFire LC-MS analysis
Keep it numeric: pIC50 is minus log10 of the concentration in mol/L.

// worked examples, pIC50 included
1) COc1cc2c(Nc3cnc(OCCCC4CCCC4)nc3)ncnc2cc1OCCCN1CCCCC1 = 9.10
2) CNc1nc(OC2CCCC2)nc2c1ncn2Cc1c(F)cccc1F = 6.90
3) CNC(=O)c1sc(N2CC3CC2(CNC(=O)c2c[nH]c4ncc(C(F)(F)F)cc24)C3)nc1C(F)(F)F = 7.20
4) CNC(=O)C[C@@H](NC(=O)[C@@H](CCc1ccccc1)NC(=O)c1c(C)noc1-c1snnc1C)c1ccc(C(F)(F)F)cc1 = 8.30
5) CN(Cc1ccc2nccn2c1)c1nnc(-c2ccc(OC3CCCC3)cc2)o1 = 7.00
6) O=S(=O)(c1ccc(Nc2ncc(N3CCOCC3)c(Nc3ccccc3)n2)cc1)N1CCCCC1 = 7.30
7) CN(Cc1ccc2c(c1)CCCO2)c1nnc(-c2ccc(-c3ccccc3Cl)cc2)o1 = 7.60
8) COc1cc2c(Nc3cnc(NC(=O)c4cccn4C)nc3)ncnc2cc1OCCCNC1CCCC1 = 7.00
9) CN(Cc1ccc2nccn2c1)c1nnc(-c2ncc(C(F)(F)F)cc2Cl)o1 = 6.10
10) CNC(=O)c1cnc(Nc2ccc(OC)cc2C)nc1NC1CCCC1 = 6.10

UniProt Q12866 / pIC50 / "CNC(=O)c1sc(N2CC3CC2(CNC(=O)c2c[nH]c4ncc(Cl)cc24)C3)nc1C(F)(F)F" : value?
7.60

Next molecule: "C[C@@H]1CN(c2cnc(Nc3cc(F)c(OCC4CC4)c(F)c3)nc2NC2CCOCC2)CCN1"
7.30

Same read-out for "CNC(=O)c1sc(N2CC3CC2(CNC(=O)c2c[nH]c4ncc(C)cc24)C3)nc1C(F)(F)F" ?
7.90

# repeat for "CN(Cc1ccc2nccn2c1)c1nnc(-c2ccc(-c3ccccc3Cl)cc2)o1"
8.30

Another molecule: "Cc1c(C(=O)Nc2ccc(Oc3ccnc4[nH]cc(-c5ccccc5)c34)c(F)c2)c(=O)n(-c2ccc(F)cc2)n1C"
8.80

Let us now turn to "CNc1nc(OCC2CCC2)nc2c1ncn2Cc1c(F)cccc1F"
7.30

Now give it for "O=C(Nc1ccc(Oc2cc(NC(=O)C3CC3)ncn2)cc1)Nc1ccc(CN2CCn3ccnc3C2)c(C(F)(F)F)c1" too.
8.20

Also "CNC(=O)c1sc(N2CC3CC2(CNC(=O)c2c[nH]c4ncccc24)C3)nc1C(F)(F)F" , if possible.
7.60

Again, but for "Cc1cc(N(C)C)ccc1-c1nnc(N(C)Cc2ccc3nccn3c2)o1"
6.20

Ref: ChEMBL document CHEMBL4732252
